Here the recorded melting point is given for each entry.

- Compound: "COC(=O)c1ccc([C@H](C)NC(=O)CN2CCN(CC(=O)N[C@@H](C)c3ccccc3)CCN(Cc3ccn(-c4ccc5c(=O)c6cc(C(C)(C)C)ccc6oc5n4)n3)CCN(CC(=O)N[C@@H](C)c3ccccc3)CC2)cc1"
  melting point: "187 to 189 °C"
- Compound: "COc1cc(OC)c(/C=C/C(c2ccc(OC)c(NC(=O)COC(C)=O)c2)S(=O)(=O)C(/C=C/c2c(OC)cc(OC)cc2OC)c2ccc(OC)c(NC(=O)COC(C)=O)c2)c(OC)c1 (stereo not drawn)"
  melting point: "192 to 194 °C"
- Compound: "O=C(O)Cc1cccc(-c2cc(CCCCc3ccc(OC4OC(CO)C(O)C(O)C4O)c(-c4cccc(CC(=O)O)c4)c3)ccc2OC2OC(CO)C(O)C(O)C2O)c1 (stereo not drawn)"
  melting point: "195 to 197 °C"

* * *

Here the recorded melting point is given for each entry.

- Molecule: "CCOC(=O)c1c(I)c(NS(=O)(=O)c2cccc3c(N(C)C)cccc23)c(I)c(N(CC)C(C)=O)c1I"
  melting point: "238 to 240 °C"
- Molecule: "O=P1(Oc2c(Br)c(Br)c(Br)c(Br)c2Br)OCC2(CO1)COP(=O)(Oc1c(Br)c(Br)c(Br)c(Br)c1Br)OC2 (centres undefined)"
  melting point: "324 to 326 °C"
- Molecule: "FC(F)(F)C(F)(F)C(F)(F)C(F)(F)C(F)(F)C(F)(F)C(F)(F)C(F)(F)CCC1(CCC(F)(F)C(F)(F)C(F)(F)C(F)(F)C(F)(F)C(F)(F)C(F)(F)C(F)(F)F)c2ccccc2-c2ccccc21"
  melting point: "87 to 88 °C"
- Molecule: "COc1cc(OC)c(C=CC(c2ccc(OC)c(NC(=O)C(C)O)c2)S(=O)(=O)C(C=Cc2c(OC)cc(OC)cc2OC)c2ccc(OC)c(NC(=O)C(C)O)c2)c(OC)c1 (centres undefined)"
  melting point: "174 to 176 °C"

* * *

Here the recorded melting point is given for each entry.
Starred links: 1 amine or outer side, 2 acyl side, 3 side chain; linkers in the order of their positions; H or OH if unused. Positions of bridges follow the written chain, without caps; N, C: chain ends. Non-standard residues stand in square brackets, D forms with d. Residues, ends and D or L forms follow the SMILES beside them. *: point of attachment. X6 = CCC(C)C(N[*:1])C(O)CC(=O)OC(C(=O)C(C)C(=O)[*:2])C(C)C; NMeY = CN[CH](Cc1ccc(O)cc1)C(=O)O; NMeL = CN[CH](CC(C)C)C(=O)O; Boc = CC(C)(C)OC(=O)*; Bn = c1ccc(C*)cc1
Measure: melting point

- Compound: "CCCCCCCCCCCCN1C(=O)NC2(CC(C)(C)N(CC(O)COc3ccc(C(C)(C)c4ccc(OCC(O)CN5C(C)(C)CC6(CC5(C)C)NC(=O)N(CCCCCCCCCCCC)C6=O)cc4)cc3)C(C)(C)C2)C1=O (centres undefined)"
  Test value: "159 to 161 °C"
- Compound: "CCC(C)C1NC(=O)C(NC(=O)C(CC(C)C)N(C)C(C)=O)C(C)OC(=O)C(Cc2ccc(OC)cc2)N(C)C(=O)C2CCCN2C(=O)C(CC(C)C)NC(=O)C(C)C(=O)C(C(C)C)OC(=O)CC1O (centres undefined) (Ac-[NMeL]T[X6]LP[NMeY](Me); ester 2-C; configuration not given here)"
  Test value: "124 to 126 °C"
- Compound: "Cc1ccc(Br)cc1C"
  Test value: "-0.2 °C"
- Compound: "CCCCCCCCCCCCN(CCCCCCCCCCCC)c1ccc2c(c1)O/C(=C1\\Oc3cc(N(CCCCCCCCCCCC)CCCCCCCCCCCC)ccc3C1=O)C2=O"
  Test value: "105 °C"
- Compound: "Cc1ccccc1CNC(=O)[C@H]1N(C(=O)[C@@H](O)[C@H](Cc2ccccc2)NC(=O)C(C)C(C)C(=O)OC[C@H]2O[C@@H](n3cc(C)c(=O)[nH]c3=O)CC2N=[N+]=[N-])CSC1(C)C (some centres undefined)"
  Test value: "116 to 118 °C"
- Compound: "CC(C)C[C@H](NC(=O)[C@H](Cc1c[nH]cn1)NC(=O)[C@H](Cc1cccc2ccccc12)NC(=O)OCc1ccccc1)[C@@H](O)CC(=O)NN1CCN(c2cccc(C(F)(F)F)c2)CC1"
  Test value: "179 to 181 °C"
- Compound: "CC(=O)OCC(CNC(=O)c1c(I)c(C(=O)NCC(COC(C)=O)OC(C)=O)c(I)c(N2CCCC2=O)c1I)OC(C)=O (centres undefined)"
  Test value: "130 to 133 °C"
- Compound: "CC(C)[C@H](NC(=O)N(C)CCc1ccccn1)C(=O)N[C@@H](Cc1ccccc1)[C@H](O)[C@@H](O)[C@H](Cc1ccccc1)NC(=O)[C@@H](NC(=O)N(C)CCc1ccccn1)C(C)C"
  Test value: "109 to 111 °C"
- Compound: "c1ccc(C2CN3CCSC3=N2)cc1 (centres undefined)"
  Test value: "60 to 61.5 °C"
- Compound: "COc1cc(OC)c(C=CC(c2ccc(OC)c(NC(=O)CCl)c2)S(=O)(=O)C(C=Cc2c(OC)cc(OC)cc2OC)c2ccc(OC)c(NC(=O)CCl)c2)c(OC)c1 (centres undefined)"
  Test value: "163 to 165 °C"
- Compound: "COc1c(Oc2nc3ccccc3o2)c(C)c(C)n(Cc2ccccc2)c1=O"
  Test value: "197 to 198 °C"
- Compound: "COc1ccc(-c2cc(C(=O)NCCCCCCc3ccccc3)cc(-c3cccc(C(F)(F)F)c3)c2OCC(=O)O)cc1"
  Test value: "153 to 159 °C"
- Compound: "COC(=O)C(C)NC(=O)C(COCc1ccccc1)NC(=O)C(Cc1ccc(OCc2ccccc2)cc1)NC(=O)C(Cc1c[nH]c2ccccc12)NC(=O)OC(C)(C)C (centres undefined) (Boc-WY(Bn)S(Bn)A-OMe; configuration not given here)"
  Test value: "178 to 182 °C"
- Compound: "COc1cc(OC)c(/C=C/C(c2ccc(OC)c(NC(=O)C(C)(C)O)c2)S(=O)(=O)C(/C=C/c2c(OC)cc(OC)cc2OC)c2ccc(OC)c(NC(=O)C(C)(C)O)c2)c(OC)c1 (centres undefined)"
  Test value: "198 to 199 °C"
- Compound: "O=S1(=O)c2ccccc2N(c2ccccc2)c2ccc(C=Cc3ccc(-c4ccc(C=Cc5ccc6c(c5)S(=O)(=O)c5ccccc5N6c5ccccc5)cc4)cc3)cc21"
  Test value: "392 °C"
- Compound: "CCc1nc(C)c(C(=O)OCOC(=O)C(C)(C)C)n1Cc1ccc2oc(-c3ccccc3-c3nnn(C(c4ccccc4)(c4ccccc4)c4ccccc4)n3)c(Br)c2c1"
  Test value: "51 to 53 °C"
- Compound: "CS(=O)(=O)N1CC=C(C#Cc2ccc3c(c2)NC(=O)CC(c2cccc(C#N)c2)=N3)CC1"
  Test value: "235 °C"
- Compound: "[C-]#[N+]Cc1nc2ccccc2o1"
  Test value: "57 to 57.5 °C"
- Compound: "COc1cc(OC)c(/C=C/C(c2ccc(OC)c(NC(=O)c3cc([N+](=O)[O-])cc([N+](=O)[O-])c3)c2)S(=O)(=O)C(/C=C/c2c(OC)cc(OC)cc2OC)c2ccc(OC)c(NC(=O)c3cc([N+](=O)[O-])cc([N+](=O)[O-])c3)c2)c(OC)c1 (centres undefined)"
  Test value: "277 to 279 °C"

* * *

Here the recorded melting point is given for each entry.

- Molecule: "CC(CO)Nc1nc(Nc2ccc(S(C)(=O)=NS(=O)(=O)CC[Si](C)(C)C)cc2)ncc1Br (mixture of isomers)"
  melting point: "194 to 197 °C"
- Molecule: "CC(C)(O)CON1C(C)(C)CC(CCCCNc2nc(NCCCCC3CC(C)(C)N(OCC(C)(C)O)C(C)(C)C3)nc(NCCCCC3CC(C)(C)N(OCC(C)(C)O)C(C)(C)C3)n2)CC1(C)C"
  melting point: "172 to 176 °C"
- Molecule: "CCc1nc(OC)c(NC(=O)N2CCN(c3cc(C)cc(C)c3)CC2)cc1C(=O)NC(C)C(=O)Nc1cc(CO)cc(Nc2c3ccccc3nc3c(C)c(C)ccc23)c1 (stereo not drawn)"
  melting point: "176 to 178 °C"
- Molecule: "[C-]#[N+]Cc1nc(-c2ccccc2)c(-c2ccccc2)o1"
  melting point: "95 to 96 °C"
- Molecule: "O=S(=O)(C(/C=C/c1ccc(Br)cc1)c1ccc(I)cc1)C(/C=C/c1ccc(Br)cc1)c1ccc(I)cc1 (stereo not drawn)"
  melting point: "217 to 219 °C"
- Molecule: "O=C1COc2cc3c(cc2O1)C1(CO3)CN(Cc2cnccn2)c2ccccc21 (stereo not drawn)"
  melting point: "216 to 218 °C"
- Molecule: "COc1ccc(C2Sc3ccccc3N(CCN(C)C)C(=O)C2OC(=O)C=CC(=O)OC2C(=O)N(CCN(C)C)c3ccccc3SC2c2ccc(OC)cc2)cc1 (stereo not drawn)"
  melting point: "112 to 114 °C"
- Molecule: "O=C(O)Cc1cccc(-c2cc(CCCC(=O)N3CCC(CCCC4CCN(C(=O)CCCc5ccc(OC6OC(CO)C(O)C(O)C6O)c(-c6cccc(CC(=O)O)c6)c5)CC4)CC3)ccc2OC2OC(CO)C(O)C(O)C2O)c1 (stereo not drawn)"
  melting point: "119 to 121 °C"
- Molecule: "O=C(O)CN(CC(COCc1ccccc1)N(CCCOCc1ccccc1)CC(=O)O)CC(COCc1ccccc1)N(CCCOCc1ccccc1)CC(=O)O (stereo not drawn)"
  melting point: "150 °C"
- Molecule: "O=C1C(COCc2ccccc2)N(Cc2ccccc2)CCN(Cc2ccccc2)C(COCc2ccccc2)C(=O)N(Cc2ccccc2)CCN1Cc1ccccc1 (stereo not drawn)"
  melting point: "86 to 87 °C"
- Molecule: "CC(C)(C)c1cc(Cc2cc(C(C)(C)C)cc(C(C)(C)C)c2Op2oc3c(C(C)(C)C)cc(C(C)(C)C)cc3c3cc(C(C)(C)C)cc(C(C)(C)C)c3o2)c(O)c(C(C)(C)C)c1"
  melting point: "195 to 205 °C"
- Molecule: "COC(=O)C(CCNC(=O)c1ccccc1C(=O)O)Oc1c(Br)cc(-c2ccc(-c3c(Cc4ccccc4)sc4ccccc34)cc2)cc1Br (stereo not drawn)"
  melting point: "95 to 97 °C"
- Molecule: "CC(NC(=O)C(CC(C(=O)O)C(C)(C)C)NC(=O)C(CC(C(=O)O)C(C)(C)C)NC(=O)C(NC(=O)C(N)C(C)C)C(C)C)C(=O)NC(CC(C(=O)O)C(C)(C)C)C(=O)NC(CC(N)=O)C(=O)OC(C)(C)C (stereo not drawn)"
  melting point: "229 to 231 °C"
- Molecule: "CCCCCCCCCCCCCCCCCCN(Cc1c(C)cc(C(C)(C)C)c(O)c1C)S(=O)(=O)c1ccc(-c2ccc(S(=O)(=O)N(CCCCCCCCCCCCCCCCCC)Cc3c(C)cc(C(C)(C)C)c(O)c3C)cc2)cc1"
  melting point: "208 to 210 °C"
- Molecule: "COC(=O)CNC(=O)[C@H](NC(=O)[C@@H](CSC(c1ccccc1)(c1ccccc1)c1ccccc1)NC(=O)[C@@H](C)NC(=O)OCC1c2ccccc2-c2ccccc21)C(C)C"
  melting point: "195 to 197 °C"
- Molecule: "CCOCCCO"
  melting point: "5.2 °C"
- Molecule: "CCN(CC)CCN=S(=O)(c1ccccc1)c1ccco1 (stereo not drawn)"
  melting point: "133 °C"
- Molecule: "COc1cc(COc2nn(-c3ccccc3)cc2/C=C/c2nc(N3CCN(C(=O)OC(C)(C)C)CC3)sc2C)ccc1OCc1nc(-c2ccc(CC(=O)O)cc2)oc1C"
  melting point: "119 to 120 °C"

These entries and their values trace back to a melting point compilation (Tetko et al.).
